Source listed as paper PMC9305971.

Reported tissue uptake at 1 h by item:
Assay: Ex vivo biodistribution of [18F]14 and [18F]15
Assay type: in vivo, Rj:NMRI-Foxn1^nu/nu mice
Details: mouse, stomach with contents, iv, 0.2 nmol, 60 min post injection, i.v., baseline; read-out: stomach (+cont.)
parameterMeasured: tissue uptake at 1 h (%ID/g)

molecule	parameterMeasured	resultUnit	experimentalResult
C[C@@H](O)[C@@H]1NC(=O)[C@H](CCCCN)NC(=O)[C@@H](Cc2c[nH]c3ccccc23)NC(=O)[C@H](Cc2ccc(O)cc2)NC(=O)[C@@H](NC(=O)[C@@H](Cc2ccccc2)NC(=O)CCOCCOCCOCCOCCON=Cc2ccc(C(=O)NCCOCCOCCOCCNC(=O)OC3CCCc4cnnc(-c5ccc(CC(=O)NCC[N+](C)(C)C[B-](F)(F)F)cc5)c4CC3)cc2)CSSC[C@@H](C(=O)N[C@H](CO)[C@@H](C)O)NC1=O (some centres unmarked) [[^18F]15]	tissue uptake at 1 h	%ID/g	1.4
C[C@@H](O)[C@@H]1NC(=O)[C@H](CCCCN)NC(=O)[C@@H](Cc2c[nH]c3ccccc23)NC(=O)[C@H](Cc2ccc(O)cc2)NC(=O)[C@@H](NC(=O)[C@@H](Cc2ccccc2)NC(=O)CCOCCOCCOCCOCCON=Cc2ccc(CNC(=O)OC3CCCc4cnnc(-c5ccc(CC(=O)NCC[N+](C)(C)C[B-](F)(F)F)cc5)c4CC3)cc2)CSSC[C@@H](C(=O)N[C@H](CO)[C@@H](C)O)NC1=O (some centres unmarked) [[^18F]14]	tissue uptake at 1 h	%ID/g	0.6

* * *

Experiment: Ex vivo biodistribution of [18F]14 and [18F]15
Type: in vivo, Rj:NMRI-Foxn1^nu/nu mice
Details: mouse, iv, 0.2 nmol, 60 min post injection, i.v., blocked with octreotide; read-out: muscle
Reported tissue uptake at 1 h by item:
parameterMeasured: tissue uptake at 1 h (%ID/g)

molecule	experimentalResult
C[C@@H](O)[C@@H]1NC(=O)[C@H](CCCCN)NC(=O)[C@@H](Cc2c[nH]c3ccccc23)NC(=O)[C@H](Cc2ccc(O)cc2)NC(=O)[C@@H](NC(=O)[C@@H](Cc2ccccc2)NC(=O)CCOCCOCCOCCOCCON=Cc2ccc(CNC(=O)OC3CCCc4cnnc(-c5ccc(CC(=O)NCC[N+](C)(C)C[B-](F)(F)F)cc5)c4CC3)cc2)CSSC[C@@H](C(=O)N[C@H](CO)[C@@H](C)O)NC1=O (some centres unmarked) [[^18F]14]	0.5
C[C@@H](O)[C@@H]1NC(=O)[C@H](CCCCN)NC(=O)[C@@H](Cc2c[nH]c3ccccc23)NC(=O)[C@H](Cc2ccc(O)cc2)NC(=O)[C@@H](NC(=O)[C@@H](Cc2ccccc2)NC(=O)CCOCCOCCOCCOCCON=Cc2ccc(C(=O)NCCOCCOCCOCCNC(=O)OC3CCCc4cnnc(-c5ccc(CC(=O)NCC[N+](C)(C)C[B-](F)(F)F)cc5)c4CC3)cc2)CSSC[C@@H](C(=O)N[C@H](CO)[C@@H](C)O)NC1=O (some centres unmarked) [[^18F]15]	0.5

* * *

Assay: PET/CT imaging of [18F]15
Assay type: in vivo, Rj:NMRI-Foxn1^nu/nu mice
Conditions: Rj:NMRI-Foxn1^nu/nu, mouse, subcutaneous AR42J tumor, iv, 0.2 nmol, total radioactivity, 90 min post injection, n = 2, coadministration of octreotide; read-out: tumor SUV, blocking
parameterMeasured: SUV at 1.5 h (SUV)

compound	resultUnit	experimentalResult
C[C@@H](O)[C@@H]1NC(=O)[C@H](CCCCN)NC(=O)[C@@H](Cc2c[nH]c3ccccc23)NC(=O)[C@H](Cc2ccc(O)cc2)NC(=O)[C@@H](NC(=O)[C@@H](Cc2ccccc2)NC(=O)CCOCCOCCOCCOCCON=Cc2ccc(C(=O)NCCOCCOCCOCCNC(=O)OC3CCCc4cnnc(-c5ccc(CC(=O)NCC[N+](C)(C)C[B-](F)(F)F)cc5)c4CC3)cc2)CSSC[C@@H](C(=O)N[C@H](CO)[C@@H](C)O)NC1=O (stereo partly shown) [[^18F]15]	SUV	0.76

* * *

Assay: PET/CT imaging of [18F]15
Type: in vivo, Rj:NMRI-Foxn1^nu/nu mice
Details: Rj:NMRI-Foxn1^nu/nu, mouse, subcutaneous AR42J tumor, iv, 0.2 nmol, total radioactivity, 25 min post injection, coadministration of octreotide; read-out: tumor SUV, blocked
Protocol: [^18F]6 in 10% ethanol–0.01 M PBS was administered intravenously to male Fox Chase SCID mice (CB.17 SCID) (11.0 ± 0.5 MBq, ∼11 nmol, ∼150 μL, n = 4) and healthy female C57BL/6JRj mice (11.3 ± 0.3 MBq, ∼11 nmol, ∼150 μL, n = 4) under 2% isoflurane anesthesia. The PET/CT image was acquired with Inveon PET/CT for 60 min followed by a 15 min static scan 4 h after injection of the tracer. […] Quantitative image analysis was done with Carimas software (v 2.10, Turku PET Centre, Turku, Finland). […]

compound	resultUnit	SUV at 25 min
C[C@@H](O)[C@@H]1NC(=O)[C@H](CCCCN)NC(=O)[C@@H](Cc2c[nH]c3ccccc23)NC(=O)[C@H](Cc2ccc(O)cc2)NC(=O)[C@@H](NC(=O)[C@@H](Cc2ccccc2)NC(=O)CCOCCOCCOCCOCCON=Cc2ccc(C(=O)NCCOCCOCCOCCNC(=O)OC3CCCc4cnnc(-c5ccc(CC(=O)NCC[N+](C)(C)C[B-](F)(F)F)cc5)c4CC3)cc2)CSSC[C@@H](C(=O)N[C@H](CO)[C@@H](C)O)NC1=O (stereo partly shown) [[^18F]15]	SUV	0.76

* * *

Reported tissue uptake at 1 h by item:
Assay: Ex vivo biodistribution of [18F]14 and [18F]15
Format: in vivo, Rj:NMRI-Foxn1^nu/nu mice
Settings: mouse, tibia bone, iv, 0.2 nmol, 60 min post injection, i.v., baseline; read-out: bone, tibia

molecule	tissue uptake at 1 h, %ID/g
C[C@@H](O)[C@@H]1NC(=O)[C@H](CCCCN)NC(=O)[C@@H](Cc2c[nH]c3ccccc23)NC(=O)[C@H](Cc2ccc(O)cc2)NC(=O)[C@@H](NC(=O)[C@@H](Cc2ccccc2)NC(=O)CCOCCOCCOCCOCCON=Cc2ccc(C(=O)NCCOCCOCCOCCNC(=O)OC3CCCc4cnnc(-c5ccc(CC(=O)NCC[N+](C)(C)C[B-](F)(F)F)cc5)c4CC3)cc2)CSSC[C@@H](C(=O)N[C@H](CO)[C@@H](C)O)NC1=O (some centres unmarked) [[^18F]15]	1.1
C[C@@H](O)[C@@H]1NC(=O)[C@H](CCCCN)NC(=O)[C@@H](Cc2c[nH]c3ccccc23)NC(=O)[C@H](Cc2ccc(O)cc2)NC(=O)[C@@H](NC(=O)[C@@H](Cc2ccccc2)NC(=O)CCOCCOCCOCCOCCON=Cc2ccc(CNC(=O)OC3CCCc4cnnc(-c5ccc(CC(=O)NCC[N+](C)(C)C[B-](F)(F)F)cc5)c4CC3)cc2)CSSC[C@@H](C(=O)N[C@H](CO)[C@@H](C)O)NC1=O (some centres unmarked) [[^18F]14]	1.3

* * *

Assay: Distribution of radioactivity in blood components after i.v. administration
Format: in vivo, mice
Conditions: mouse, whole blood, intravenous, 5 min post injection; read-out: free fraction
parameterMeasured: fraction unbound at 5 min

compound	experimentalResult
C[C@@H](O)[C@@H]1NC(=O)[C@H](CCCCN)NC(=O)[C@@H](Cc2c[nH]c3ccccc23)NC(=O)[C@H](Cc2ccc(O)cc2)NC(=O)[C@@H](NC(=O)[C@@H](Cc2ccccc2)NC(=O)CCOCCOCCOCCOCCON=Cc2ccc(CNC(=O)OC3CCCc4cnnc(-c5ccc(CC(=O)NCC[N+](C)(C)C[B-](F)(F)F)cc5)c4CC3)cc2)CSSC[C@@H](C(=O)N[C@H](CO)[C@@H](C)O)NC1=O (stereo partly shown) [[^18F]14]	0.729

* * *

Assay: Distribution of radioactivity in blood components after i.v. administration
Assay type: in vivo, mice
Conditions: mouse, whole blood, intravenous, 60 min post injection; read-out: free fraction

compound	fraction unbound at 60 min
C[C@@H](O)[C@@H]1NC(=O)[C@H](CCCCN)NC(=O)[C@@H](Cc2c[nH]c3ccccc23)NC(=O)[C@H](Cc2ccc(O)cc2)NC(=O)[C@@H](NC(=O)[C@@H](Cc2ccccc2)NC(=O)CCOCCOCCOCCOCCON=Cc2ccc(CNC(=O)OC3CCCc4cnnc(-c5ccc(CC(=O)NCC[N+](C)(C)C[B-](F)(F)F)cc5)c4CC3)cc2)CSSC[C@@H](C(=O)N[C@H](CO)[C@@H](C)O)NC1=O (stereo partly shown) [[^18F]14]	0.685

* * *

Test: Ex vivo biodistribution of [18F]14 and [18F]15
Type: in vivo, Rj:NMRI-Foxn1^nu/nu mice
Details: mouse, iv, 0.2 nmol, 60 min post injection, i.v., blocked with octreotide; read-out: brain
Description: [^18F]14 and [^18F]15 in ≤4% ethanol–0.01 M PBS were administered intravenously (1.2 ± 0.0 and 2.0 ± 0.1 MBq, respectively, 0.2 nmol, 150 μL) to AR42J tumor-bearing Rj:NMRI-Foxn1^nu/nu mice. At predetermined time points (t = 30, 60, 120, and 240 min), animals were euthanized with CO2 asphyxiation and cervical dislocation, and then the organs were harvested, washed with water, and blotted dry, following with weighing and γ counting from which the % ID/g in tissues was determined.
Reported tissue uptake at 1 h by item:

compound	tissue uptake at 1 h, %ID/g
C[C@@H](O)[C@@H]1NC(=O)[C@H](CCCCN)NC(=O)[C@@H](Cc2c[nH]c3ccccc23)NC(=O)[C@H](Cc2ccc(O)cc2)NC(=O)[C@@H](NC(=O)[C@@H](Cc2ccccc2)NC(=O)CCOCCOCCOCCOCCON=Cc2ccc(CNC(=O)OC3CCCc4cnnc(-c5ccc(CC(=O)NCC[N+](C)(C)C[B-](F)(F)F)cc5)c4CC3)cc2)CSSC[C@@H](C(=O)N[C@H](CO)[C@@H](C)O)NC1=O (some centres unmarked) [[^18F]14]	0.3
C[C@@H](O)[C@@H]1NC(=O)[C@H](CCCCN)NC(=O)[C@@H](Cc2c[nH]c3ccccc23)NC(=O)[C@H](Cc2ccc(O)cc2)NC(=O)[C@@H](NC(=O)[C@@H](Cc2ccccc2)NC(=O)CCOCCOCCOCCOCCON=Cc2ccc(C(=O)NCCOCCOCCOCCNC(=O)OC3CCCc4cnnc(-c5ccc(CC(=O)NCC[N+](C)(C)C[B-](F)(F)F)cc5)c4CC3)cc2)CSSC[C@@H](C(=O)N[C@H](CO)[C@@H](C)O)NC1=O (some centres unmarked) [[^18F]15]	0.2
